assay: NCI Yeast Anticancer Drug Screen. Data for the bub3 strain (AID 167); conditions: S. cerevisiae bub3 mutant strain, at 50.0 µM, active compounds read high
The panel holds about 79,000 compounds, 15% with a hit somewhere; the sample as a whole holds those more often.
growth inhibition values for the molecules below.
The figure you give is taken to be in %; do not add the unit.

# MOLECULE, QUANTITY UNIT, RECORDED NUMBER
data = [
    ("Fc1ccc2nncc(SCc3ccc(Cl)c(Cl)c3)c2c1", "%", 18.4),
    ("O=C(Cl)c1ccc2c(c1)C(=O)OC2=O", "%", 9.55),
    ("NCC(N)C(O)C(O)C(O)CO (stereo not drawn)", "%", -16.4),
]

Look up growth inhibition: Cc1nc2cc(N)c(F)cc2[nH]1 16.4

Look up growth inhibition: CC1CCC23C1CC(CC(=O)C2(C)O)C3(C)C (stereo not drawn) -21.1

Look up growth inhibition: CCCCCCCN1C(=O)C(O)(c2ccc(C3(O)C(=O)N(CCCCCCC)c4ccccc43)s2)c2ccccc21 (stereo not drawn) 9.7

Look up growth inhibition: O=C1c2cc([N+](=O)[O-])ccc2-c2c(F)cc(F)cc21 -2.1

* * *

experiment: NCI Yeast Anticancer Drug Screen. Data for the mec2-1 strain (AID 157); conditions: S. cerevisiae mec2-1 strain, at 50.0 µM, active compounds read high
About 79,000 compounds went through this panel and 15% of them were active in at least one assay; those are over-represented in the sample as a whole.
RECORDED METRIC: growth inhibition (%)
The figure you give is taken to be in %; do not add the unit.

Recorded results for 10 compounds are shown here.
# COMPOUND, RECORDED NUMBER
data = [
    ("Nc1nc(N)c(N=Nc2ccc(S(=O)(=O)NC(=O)c3ccccc3)cc2)c(=O)[nH]1", -4.3),
    ("COc1cc2c(cc1OC)-c1cc3cc(OC)c(OC)cc3c(C)[n+]1CC2 (tested in a mixture with another compound)", 0),
    ("O=S(=O)(Nc1ccccc1C(O)c1ccccc1)c1ccccc1 (centres undefined)", 0.8),
    ("Cc1ccc(N(CN2C(=O)CCC2=O)CS(=O)(=O)c2ccc(C)cc2)cc1", -8.6),
    ("CC1(C)C=C(C(Br)c2cccc(Cl)c2)C(=O)c2ccccc21 (centres undefined)", 99.6),
    ("CCOC(=O)CSc1nc(-c2ccc(Cl)cc2)c(C#N)c(=O)[nH]1", -0.45),
    ("COc1ccc(OC)c(CSc2ccc(OC)c(OC)c2)c1", 31.9),
    ("CCOC(=O)C1SC(=S)N(c2ccccc2)C1N (centres undefined)", 14.6),
    ("COc1cc2c(cc1OC)C(Cl)C(c1ccc(Cl)c(Cl)c1)=C2Cl (centres undefined)", 14.2),
    ("C=C1C(=C)C2C=CC1C1C3C(c4ccccn4)=NN=C(c4ccccn4)C3C21 (centres undefined)", 66.2),
]

Look up growth inhibition: NC1=NN(c2ccccc2)C(=O)C1/C(=N\NC(=O)c1cc2ccccc2cc1O)C(=O)Nc1ccc(Cl)c(Cl)c1 (centres undefined) 10

Look up growth inhibition: COc1ccc(/C=C2\C=Cc3ccccc32)cc1OC -6

Look up growth inhibition: O=c1[nH]cc(COCC(F)(F)C(F)(F)C(F)(F)C(F)F)c(=O)[nH]1 -14.9

* * *

growth inhibition values for the molecules below.
assay: NCI Yeast Anticancer Drug Screen. Data for the cln2 rad14 strain (AID 165);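 note: 0% = growth equal to vehicle treated cultures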; conditions: S. cerevisiae cln2 rad14 strain, at 50.0 µM, active compounds read high
The panel holds about 79,000 compounds, 15% with a hit somewhere; the sample as a whole holds those more often. Where a SMILES comes first, the peptide text is derived from it. The star is where a group is joined. Cbz = O=C(OCc1ccccc1)*
The figure you give is taken to be in %; do not add the unit.

Recorded results for 6 molecules are shown here.
# MOLECULE, growth inhibition / %
data = [
    ("N=C1C=CC2C(=Nc3ccccc3[N+]2=O)N1Cc1ccncc1 (stereo unspecified)", 1.45),
    ("NNC(=O)COc1ccc(Br)cc1Br", 26.4),
    ("CSc1cc2c(cc1[N+](=O)[O-])C(=O)c1ccccc1-2", 0.6),
    ("CC(=O)OCCS(=O)(=O)c1c(Cl)c(Cl)c(Cl)c(Cl)c1Cl", 93.8),
    ("CC(C)(C)c1ccc(Oc2nc(Oc3ccc(C(C)(C)C)cc3)nc(Oc3ccc(C(C)(C)C)cc3)n2)cc1", 3.8),
    ("CC(=O)Nc1cc(F)c(N)c(F)c1", -5.25),
]

Look up growth inhibition: CC(NC(=O)C(NC(=O)OCc1ccccc1)C(C)C)C(=O)NCC(=O)O (stereo not drawn) (Cbz-Val-Ala-Gly-OH; configuration not given here) 19.8

Look up growth inhibition: CCC1CCC(Cc2ccncc2)CC1 (stereo unspecified) -78.9

Look up growth inhibition: Cc1ccc(NC(=O)Oc2ccc(Cl)cc2Cl)cc1NC(=O)Oc1ccc(Cl)cc1Cl -13.1

* * *

assay: NCI Yeast Anticancer Drug Screen. Data for the sgs1 mgt1 strain (AID 161);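 note: 0% = growth of cultures given vehicle only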; details: S. cerevisiae sgs1 mgt1 strain, at 50.0 µM, active compounds read high
Compounds without any hit were thinned out: in the full panel of roughly 79,000, 15% have a hit.
RECORDED METRIC: growth inhibition (%)
The figure you give is taken to be in %; do not add the unit.

# COMPOUND, QUANTITY UNIT, growth inhibition
rows = [
    ("Clc1ccccc1-c1nnc(-c2cccc(-c3nnc(-c4ccccc4Cl)o3)n2)o1", "%", -6.55),
]

Look up growth inhibition: O=S1c2ccccc2S(=O)c2ccccc21 (stereo not drawn) 1.4

Look up growth inhibition: CCCOC(=O)CCBr -13.9

Look up growth inhibition: CCCCCCCCC(Nc1ccccc1)C(O)CCCCCCCC(=O)O (stereo not drawn) (tested in a mixture with another compound) 7.5

* * *

test: NCI Yeast Anticancer Drug Screen. Data for the cln2 rad14 strain (AID 165);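 note: 0% = growth equal to vehicle treated cultures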; conditions: S. cerevisiae cln2 rad14 strain, at 50.0 µM, active compounds read high
This is part of a sample that, as a whole, favours compounds with a hit. Of some 79,000 tested, about 15% had one in any assay.
growth inhibition values for the compounds below.
The figure you give is taken to be in %; do not add the unit.

# COMPOUND, growth inhibition [%]
data = [
    ("COC1OC(COCc2ccccc2)C(OCc2ccccc2)C(OC)C1O (stereo not given)", -40.9),
    ("Cc1cnccc1P(=O)(O)O", -21.7),
]

Look up growth inhibition: O=c1[nH]cc(Cl)cc1Cl -8.35

Look up growth inhibition: CC(=O)CC(=O)Nc1ccccc1Cl -5.75

Look up growth inhibition: COc1c(Cl)cc(NC(=S)C#N)cc1Cl 39.6

Look up growth inhibition: O=C(Cc1ccccc1)c1ccccc1C(=O)NCc1ccccc1 -66.5

Look up growth inhibition: Clc1cnc(/N=C/c2ccc(/C=N/c3ncc(Cl)cc3Cl)cc2)c(Cl)c1 10

Look up growth inhibition: CC(c1ccccc1)N1COc2cc3c(cc2C1)CN(C(C)c1ccccc1)CO3 (stereo not given) -28.3

* * *

experiment: NCI Yeast Anticancer Drug Screen. Data for the cln2 rad14 strain (AID 165);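 note: 0% = growth equal to vehicle treated cultures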; settings: S. cerevisiae cln2 rad14 strain, at 50.0 µM, active compounds read high
Compounds without any hit were thinned out: in the full panel of roughly 79,000, 15% have a hit.
RECORDED METRIC: growth inhibition (%)
The figure you give is taken to be in %; do not add the unit.

Recorded results for 5 molecules are shown here.
# MOLECULE, growth inhibition [%]
rows = [
    ("CC1(C)C2CC3C(=CCCC3C(=O)O)C1C2 (stereo not drawn)", 9.8),
    ("Cc1cccc(C(=O)NCC(=O)O)c1", -85.5),
    ("O=[N+]([O-])/C(N=Nc1ccc2ccccc2c1Br)=N/Nc1ccc2ccccc2c1Br", -2.85),
    ("NC(=S)c1cccc(C(N)=S)n1", -27.9),
    ("CN(C)c1ccc2c(N(C)C)cc(N(C)C)[n+](C)c2c1", 15.2),
]

Look up growth inhibition: COC(=O)c1cc2c(o1)Sc1ccccc1NC2=O 3.65

Look up growth inhibition: CCOC(=O)c1c[nH]c(=S)n(C)c1=O -14.1

Look up growth inhibition: CC(C)N1CC2CC(CN(C(=O)c3ccc(Cl)cc3)C2)C1 2.95

Look up growth inhibition: CCc1ccc2c(c1)/C(=N\NC(N)=O)CCC2 -7.6

Look up growth inhibition: O=P(CCCCCCCCCCP(=O)(c1ccccc1)c1ccccc1)(c1ccccc1)c1ccccc1 9.55

* * *

growth inhibition values for the compounds below.
test: NCI Yeast Anticancer Drug Screen. Data for the bub3 strain (AID 167); settings: S. cerevisiae bub3 mutant strain, at 50.0 µM, active compounds read high
Compounds without any hit were thinned out: in the full panel of roughly 79,000, 15% have a hit.
The figure you give is taken to be in %; do not add the unit.

# COMPOUND, RECORDED METRIC, RECORDED NUMBER
measured = [
    ("CSc1cc(Cl)c(C)cc1S(=O)(=O)NC(=O)NNc1ccc(Cl)cc1", "growth inhibition", -3.75),
    ("COC(=O)C(NC(=O)c1ccccc1)C(c1c(O)cc(O)cc1O)P(=O)(OC)OC (stereo unspecified)", "growth inhibition", 1),
    ("NNC(=S)NC1CCCCC1", "growth inhibition", 16.9),
]

Look up growth inhibition: c1ccc(CNc2ncnc3n[nH]nc23)cc1 20.1

Look up growth inhibition: Cc1c(Br)[n+](=O)c2ccccc2n1[O-] 11.9
